The measured values listed here are drawn from patent US6923992B2.

Entries and their Fluid accumulation ratio (FA) values follow.
# Test system: PGE2-induced fluid accumulation
# measurement description: PGE2-induced enteropooling assay (fluid accumulation) in rats
# Type: in vivo, Sprague-Dawley rats
# test context: rats, dose 2 mg/kg intergastrically 60 min before PGE2 (100 μg/kg, i.g.)
# Experimental: This example illustrates the ability of BJW and its active components, magnolol, honokiol and imperatorin, to inhibit PGE2-induced fluid accumulation in rats. Sprague-Dawley rats of either sex, in groups of 8 animals, weighing between 220 and 250 g were used. A modified PGE2-induced enteropooling assay (Robert et al., Prostaglandins 11(5):809-28 (1976)) was used. The test drugs or vehicle were administrated intergastrically to rats 60 min before the administration of PGE2 (100 μg/kg, i.g.). […]
Give the quantity in fluid g/g intestine, number only.

Reference set, count: 2
CN(C)C(=O)C(CCN1CCC(O)(c2ccc(Cl)cc2)CC1)(c1ccccc1)c1ccccc1 [Loperamide, loperamide, reference compound]	5.09
CC(C)=CCOc1c2occc2cc2ccc(=O)oc12	8.87

Lab note: `C=CCc1ccc(O)c(-c2cc(CC=C)ccc2O)c1` gave Fluid accumulation ratio (FA) of 3.28

Lab note: `C=CCc1ccc(O)c(-c2ccc(O)c(CC=C)c2)c1` gave Fluid accumulation ratio (FA) of 7.06
